- TARGET ENTITY: L-lactate dehydrogenase (Plasmodium falciparum (isolate CDC / Honduras))
- PROTOCOL DESCRIPTION: PfLDH activity inhibition – cell lysate, 3D7 strain, counter-screen for P. falciparum growth inhibition project (AID 2304);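 note: 0% = vehicle and 100% = reference inhibitor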
- EXPERIMENTAL CONTEXT: P. falciparum 3D7 crude extract, LDH APAD/NBT absorbance; at 2 µM; stronger effect = higher value
The reader will find reported inhibition values listed item by item below.
The figure you give is taken to be in %; do not add the unit.

Some solved entries appear below for comparison.
> print(dat)
                                   compound                             target.entity  reported.property  value.reported
1  Cn1cc(CCNc2ccnc(NCCc3coc4ccccc34)n2)c2ccccc21  L-lactate dehydrogenase (Plasmodium falciparum (isolate CDC / Honduras))         inhibition               6
2  CCCCN1CCN(Cc2cccc(NC(=O)c3ccc(Cl)c(Cl)c3)c2)CC1  L-lactate dehydrogenase (Plasmodium falciparum (isolate CDC / Honduras))         inhibition               1
3    N=C(N)c1ccc(C(=O)Nc2cccc(C(=N)N)c2)cc1  L-lactate dehydrogenase (Plasmodium falciparum (isolate CDC / Honduras))         inhibition              -2

What does the data say about its inhibition? Entry: `O=C(NCCN1CCCC1)c1cccc(-c2ccc(-c3nc4ccccc4[nH]3)cc2)c1`
0

Which inhibition value belongs to `Cc1cnc(NCCc2ccc(F)cc2)nc1NCCC(=O)Nc1ccccc1` ?
6
